# MEASURED ON: Bile acid receptor (Homo sapiens)
# PROCEDURE TEXT: ATG_IR1_CIS: Attagene CIS-FACTORIAL HepG2 Assay for human Nuclear Receptor Subfamily 1 Group H Member 4 (NR1H4), IR1 submotif (AID 2282946)
# CONDITION DETAILS: IR1 reporter transcription, actives raise or lower the signal
Activity calls are given as the source filed them. The calls were made as follows: active = hit-call score of the fitted dose curve at least 0.9, where 1 is the maximum; inactive = score below 0.9.
Reply using exactly one outcome from true (1) = active, false (0) = inactive

Illustrative cases are given below, each with its answer.
MOLECULE	CLASS ASSIGNMENT
O=C1CCCN1C1CCCCC1	false (0)
Oc1c(Cl)cc(Cl)c(Cl)c1Cl	false (0)
CCCCCCCCCCCCC	false (0)
Nc1ccc(C(=O)OCCCOC(=O)c2ccc(N)cc2)cc1	false (0)
C=CC(=O)NC(C)(C)C	true (1)
CN(C)c1ccc2nc3ccc(=[N+](C)C)cc-3sc2c1	false (0)
CCCCc1ccc(Cl)cc1	false (0)
O=C(O)c1ccc2c(c1)C(=O)OC2=O	false (0)

input: Hey, what did the test say about `CCC[Si](OC)(OC)OC` ?
output: false (0)

input: Hey, what did the test say about `O=C(Nc1ccccc1)c1cc(Cl)ccc1O` ?
output: false (0)

input: Hey, what did the test say about `CCN(CC)c1cccc(C)c1` ?
output: false (0)

input: Hey, what did the test say about `CCCCCCCOC(=O)c1ccc(O)cc1` ?
output: true (1)

input: Hey, what did the test say about CCC(C)C(=O)OCCc1ccccc1 (stereo not drawn) ?
output: false (0)

* * *

# Read-out: Vascular cell adhesion molecule 1 (VCAM1), VCAM1 (gene 7412)
# PROCEDURE TEXT: BSK_4H_VCAM1: BioMAP Diversity Plus: 4H Assay for Vascular cell adhesion molecule 1 (VCAM1) Biomarker Activity (AID 2283033);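 as to outcome: cell-surface VCAM-1 protein measured by ELISA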
# CONDITION DETAILS: primary human endothelial cells (HUVEC); actives raise or lower the signal
Active and inactive are the calls of the source. Rule for the calls: active = hit-call score of the fitted dose curve at least 0.9, where 1 is the maximum; inactive = score below 0.9.
Reply using exactly one outcome from T = active, F = inactive

Illustrative cases are given below, each with its answer.
SMI	CLASS ASSIGNMENT
CCCCCCCCCCCC(C)=O	T
Cc1c(O)cccc1O	F
CC(c1cc(C(C)(C)C)cc(C(C)(C)C)c1O)c1cc(C(C)(C)C)cc(C(C)(C)C)c1O	F
CC/C=C\CCOC(=O)c1ccccc1O	T
C=C(C)C(=O)OCCCCCCCCCCCC	F

input: Hey, what did the test say about `Oc1ccccc1Cc1ccccc1O` ?
output: F

input: Hey, what did the test say about `CCOC(=O)C1=NOC(c2ccccc2)(c2ccccc2)C1` ?
output: F

input: Hey, what did the test say about `C=CC(=O)NCOCCCC` ?
output: F

* * *

# PROCEDURE TEXT: ATG_GAL4_TRANS: Attagene TRANS-FACTORIAL HepG2 Assay for GAL4 (Internal Marker) (AID 2282976)
# CONDITION DETAILS: HepG2 Attagene TRANS GAL4 internal marker reporter
# Experimental: ATG_TRANS is a cell-based, multiplexed-readout assay that uses HepG2, a human liver cell line, with measurements taken at 24 hours after chemical dosing in a 24-well plate.ATG_GAL4_TRANS is one of 30 assay component(s) measured or calculated from the ATG_TRANS assay. […] This assay endpoint, ATG_GAL4_TRANS, was analyzed in the positive analysis fitting direction relative to DMSO as the negative control and baseline of activity. […]
Inconclusive results are not listed. The source made the active and inactive calls. The calls were made as follows: active = hit-call score of the fitted dose curve at least 0.9, where 1 is the maximum; inconclusive = response in the unintended direction; inactive = score below 0.9.
MEASURE: outcome

COMPOUND	outcome
CCCCCCCCCCCC(=O)N(C)CC(=O)O	inactive
CC=CC(=O)OCC(C)C	inactive
CCCC/C=C/C=C\C=O	inactive
CC1(C)C(=O)N(CO)C(=O)N1CO	inactive
C=CC(=O)OCCCCCCCC(C)C	inactive
Nc1ccc(C(=O)OCCCOC(=O)c2ccc(N)cc2)cc1	inactive

Reported outcome ( `C[N+](C)(C)CCCNS(=O)(=O)C(F)(F)C(F)(F)C(F)(F)C(F)(F)C(F)(F)C(F)(F)C(F)(F)C(F)(F)F` ) = inactive

Reported outcome ( C=C(C)C(=O)OCC(O)COc1ccc(C(C)(C)c2ccc(OCC(O)COC(=O)C(=C)C)cc2)cc1 (stereo not drawn) ) = inactive

Reported outcome ( `C=C(C)OC(C)=O` ) = inactive

* * *

# Read-out: Macrophage colony-stimulating factor (MCSF), CSF1 (gene 1435)
# PROCEDURE TEXT: BSK_LPS_MCSF: BioMAP Diversity Plus: LPS Assay for Macrophage colony-stimulating factor (MCSF) Biomarker Activity (AID 2283083)
# CONDITION DETAILS: primary human HUVEC with PBMC; actives raise or lower the signal
The source made the active and inactive calls. The calls were made as follows: active = hit-call score of the fitted dose curve at least 0.9, where 1 is the maximum; inactive = score below 0.9.
Reply using exactly one outcome from active, inactive

Illustrative cases are given below, each with its answer.
COMPOUND	CLASS ASSIGNMENT
CC(Cl)COP(=O)(OCC(C)Cl)OCC(C)Cl (configuration not stated)	inactive
COc1ccc(C(=O)c2ccccc2)c(O)c1	inactive
Oc1ccccc1Cc1ccccc1O	inactive

input: Hey, what did the test say about `CC/C=C\CCOC(=O)c1ccccc1O` ?
output: active

input: Hey, what did the test say about `CCCCCCC=O` ?
output: inactive

input: Hey, what did the test say about `C=CC(=O)NC(C)(C)C` ?
output: inactive

input: Hey, what did the test say about `CC(C)[N+](C)(CCOC(=O)C1c2ccccc2Oc2ccccc21)C(C)C` ?
output: inactive

* * *

# MEASURED ON: Retinoic acid receptor alpha (Homo sapiens)
# PROCEDURE TEXT: ATG_DR5_RAR_CIS: Attagene CIS-FACTORIAL HepG2 Assay for human Retinoic Acid Receptor Alpha (RARE), DR5 submotif (AID 2282934)
# CONDITION DETAILS: HepG2 Attagene cis-factorial RARE DR5 reporter, mRNA; actives raise or lower the signal
Active and inactive are the calls of the source. Rule for the calls: active = hit-call score of the fitted dose curve at least 0.9, where 1 is the maximum; inactive = score below 0.9.
Reply using exactly one outcome from active, inactive

COMPOUND	CLASS ASSIGNMENT
CCNc1nc(NC(C)(C)C)nc(OC)n1	inactive
COc1nccnc1CC(C)C	inactive
CCCCC1CCC(=O)O1 (stereo unspecified)	inactive

Could you now look at the following compound, please?
input: Hey, what did the test say about CCCCOCC(C)O (stereo unspecified) ?
output: inactive

* * *

# PROCEDURE TEXT: CEETOX_H295R_ESTRADIOL: CeeTox H295R High-throughput Steroidogenesis Assay for Estradiol (AID 2283440);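 also: estradiol secreted into medium quantified by LC-MS/MS after dansyl derivatisation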
# CONDITION DETAILS: actives raise or lower the signal
Active and inactive are the calls of the source. How the source made its calls: active means hit-call score of the fitted dose curve at least 0.9, where 1 is the maximum; inactive means score below 0.9.
Reply using exactly one outcome from active, inactive

Illustrative cases are given below, each with its answer.
SMI	CLASS ASSIGNMENT
CCN1CN(CC)CN(CC)C1	inactive
O=C(O)c1cc(O)c2ccccc2c1O	inactive
CN(C)c1ccc2nc3ccc(=[N+](C)C)cc-3sc2c1	inactive
C=CC(=O)OCCCCCCOC(=O)C=C	inactive
O=C(OCc1ccccc1)c1ccc(O)cc1	active

Could you now look at the following compound, please?
input: Hey, what did the test say about `COc1ccc(-c2coc3cc(O)cc(O)c3c2=O)cc1` ?
output: inactive

* * *

# Tested on: guinea pig Dopamine Transporter (DAT), gene 100714898
# PROCEDURE TEXT: NVS_TR_gDAT: NovaScreen (NVS) Transporter Assay for guinea pig Dopamine Transporter (DAT) (AID 2283369);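 also: active compounds lower bound radioligand signal relative to DMSO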
Inconclusive results are not listed. The source made the active and inactive calls. How the source made its calls: active means hit-call score of the fitted dose curve at least 0.9, where 1 is the maximum; inconclusive means response in the unintended direction; inactive means score below 0.9.
Consider the following molecules and their measured AC50 readings.

MOLECULE	MEASURED ON	AC50
CCOC(=O)C1=NN(c2ccc(Cl)cc2Cl)C(C)(C(=O)OCC)C1 (stereo unspecified)	guinea pig Dopamine Transporter (DAT), gene 100714898	15.8 µM (active)
CCN(CC)c1cccc(C)c1	guinea pig Dopamine Transporter (DAT), gene 100714898	4.96 µM (active)
O=C(Oc1ccccc1)c1ccccc1C(=O)Oc1ccccc1	guinea pig Dopamine Transporter (DAT), gene 100714898	3.31 µM (active)
[Cl][Eu]([Cl])[Cl]	guinea pig Dopamine Transporter (DAT), gene 100714898	18.2 µM (active)

Proceed to the following item.
Param item: `Oc1ccc(/C=C/c2cc(O)cc(O)c2)cc1` ; param system: guinea pig Dopamine Transporter (DAT), gene 100714898; output AC50: 6.63 µM (active)

* * *

# PROCEDURE TEXT: ATG_FoxO_CIS: Attagene CIS-FACTORIAL HepG2 Assay for human Forkhead box O (FoxO) (AID 2282943)
# CONDITION DETAILS: HepG2 Attagene cis-reporter, FoxO element, mRNA; actives raise or lower the signal
# Experimental: ATG_CIS is a cell-based, multiplexed-readout assay that uses HepG2, a human liver cell line, with measurements taken at 24 hours after chemical dosing in a 24-well plate.ATG_FoxO_CIS is one of 52 assay component(s) measured or calculated from the ATG_CIS assay. […] This assay endpoint, ATG_FoxO_CIS, was analyzed with bidirectional fitting relative to DMSO as the negative control and baseline of activity. […]
Activity calls are given as the source filed them. Rule for the calls: active = hit-call score of the fitted dose curve at least 0.9, where 1 is the maximum; inactive = score below 0.9.
Reply using exactly one outcome from active, inactive

input: Hey, what did the test say about CC1=CCC2CC1C2(C)C (configuration not stated) ?
output: inactive

input: Hey, what did the test say about `CCN(CC)c1cccc(C)c1` ?
output: inactive

input: Hey, what did the test say about `CCCCCC1=CCCC1=O` ?
output: inactive

input: Hey, what did the test say about `CCCCOCCOC(=O)COc1ccc(Cl)cc1Cl` ?
output: inactive

input: Hey, what did the test say about `C1CCSC1` ?
output: inactive

input: Hey, what did the test say about `COC(Cc1ccccc1)OC` ?
output: inactive

input: Hey, what did the test say about `C=Cc1cccc(C)c1` ?
output: inactive

input: Hey, what did the test say about `CO[Si](CCCS)(OC)OC` ?
output: inactive

input: Hey, what did the test say about CCCCC(CC)COS(=O)(=O)O (configuration not stated) ?
output: inactive

input: Hey, what did the test say about `Cc1ccc2c(c1)CCCN2` ?
output: inactive

input: Hey, what did the test say about `CC(=O)c1ccccc1O` ?
output: inactive

input: Hey, what did the test say about CC(C=O)c1ccccc1 (configuration not stated) ?
output: inactive

input: Hey, what did the test say about `N=C1C=CC(=C(c2ccc(N)cc2)c2ccc(N)cc2)C=C1` ?
output: active

input: Hey, what did the test say about `CC(c1cc(C(C)(C)C)cc(C(C)(C)C)c1O)c1cc(C(C)(C)C)cc(C(C)(C)C)c1O` ?
output: inactive

input: Hey, what did the test say about `CCc1cccc(C)c1N` ?
output: inactive

input: Hey, what did the test say about `N#CC1(N)CCCCC1` ?
output: inactive

input: Hey, what did the test say about `CCN1CN(CC)CN(CC)C1` ?
output: inactive

input: Hey, what did the test say about `COc1nccnc1CC(C)C` ?
output: inactive

input: Hey, what did the test say about `CC=C(C)C(C)=O` ?
output: inactive

input: Hey, what did the test say about `CCCCNS(=O)(=O)c1ccccc1` ?
output: inactive

input: Hey, what did the test say about CCCCOC(=O)C(C)CC (configuration not stated) ?
output: inactive

input: Hey, what did the test say about `COc1ccc(C(=O)c2ccccc2)c(O)c1` ?
output: inactive
